- run description: P-glycoprotein substrates identified in KB-8-5-11 adenocarcinoma cell line, qHTS therapeutic library screen (AID 1346987); also: nearly all actives have a fitted effect of over 65% in size; also: potency is read from the fitted curve at half-maximal effect
- cond: KB-8-5-11 (P-gp overexpressing) viability, CellTiter-Glo, 72 h; series mostly up to 44.5 µM
Records with an inconclusive call do not appear. Activity calls are given as the source filed them. Calls follow the shape of the dose curve; as a rule, active = well fitted inhibition curve with a large enough effect; inconclusive = small, poorly fitted or top-dose-only effect; inactive = flat fitted curve, though single readings scatter.
quantity: Potency

molecule: O=C1CN=C(c2ccccc2)c2cc(Cl)ccc2N1CC1CC1
obs value: 9.2 µM (active)
--
molecule: CCC(C)(C#N)O[C@@H]1O[C@H](CO)[C@@H](O)[C@H](O)[C@H]1O (stereo partly drawn)
obs value: inactive
--
molecule: NCC[C@H](O)C(=O)N[C@@H]1C[C@H](N)[C@@H](O[C@H]2O[C@H](CN)[C@@H](O)[C@H](O)[C@H]2N)[C@H](O[C@@H]2O[C@H](CO)[C@@H](O)[C@H]2O)[C@H]1O
obs value: inactive
--
molecule: Cc1ccccc1-n1c(C)nc2ccccc2c1=O
obs value: inactive
--
molecule: O=C1OC2(c3cc(Br)c(O)cc3Oc3c2cc(Br)c(O)[c]3[Hg])c2ccccc21 (stereo not drawn)
obs value: inactive

Which value of Potency has been reported for CN(C)CCCCCCN(C)C (tested in a mixture with another compound) in the records? inactive

Which Potency value is on record for COC([CH2][Hg])CNC(=O)c1ccccc1OCC(=O)O (stereo not drawn) ? inactive

Which Potency value is on record for COc1ccc2c(c1)/C(=C/c1cnc[nH]1)C(=O)N2 ? 5.17 µM (active)

###

- System: N140
- run description: qHTS profiling for inhibitors of Plasmodium falciparum proliferation (AID 504749); also: nearly all actives have a fitted effect of over 60% in size
- cond: P. falciparum in erythrocytes, SYBR Green DNA, 72 h; series mostly up to 28.7 µM
- Experimental: NIH National Institute of Allergy and Infectious Diseases [NIAID] NIH Chemical Genomics Center [NCGC] […] Because mature erythrocytes lack DNA, only Plasmodium-derived DNA is detected. NCGC Assay Protocol Summary: The SYBR Green viability assay was adapted from a method described previously (Plouffe et al., 2008). […] The following morning, fluorescence intensity at 485(14) nm excitation and 535(25) nm emission wavelengths was measured on an EnVision (Perkin Elmer) plate reader. […]
Inconclusive results are not listed. The source made the active and inactive calls. The call rests on the fitted dose curve; in most records, active means well fitted inhibition curve with a large enough effect; inconclusive means small, poorly fitted or top-dose-only effect; inactive means flat fitted curve, though single readings scatter.
Entry note: the call must match one of label 1 = active, label 0 = inactive

Query: recorded result category for C/C(=C\c1csc(C)n1)[C@@H]1C[C@@H]2O[C@]2(C)CCC[C@H](C)[C@H](O)[C@@H](C)C(=O)C(C)(C)[C@@H](O)CC(=O)O1 in this test label 1

Tell me the assay call for O=C(CCl)c1ccc(Oc2ccc(C(=O)CCl)cc2)cc1 please. label 0

So what was the verdict on CC(C)(O)C1C2OC(=O)C1C1(O)CC3OC34C(=O)OC2C14C (stereo not drawn) in this test? label 0

Write down the call the test reported for this compound. Item: ClC1C(Cl)C(Cl)C(Cl)C(Cl)C1Cl (stereo not drawn) label 0

For c1cc2c(c(NC3=NCCN3)c1)CCCC2 , what call appears in the results of this test? label 0

Can you look up the reported call for CCCC(C)(COC(N)=O)COC(=O)NC1CC1 (stereo not drawn) for me? label 0

Which outcome was entered for the compound COC1=CC=C2[C@H]3Cc4ccc(OC)c5c4[C@@]2(CCN3C)[C@H]1O5 in this test? label 0

So what was the verdict on CCOP(=O)(OCC)O/C(=C/Cl)c1ccc(Cl)cc1Cl in this test? label 0

Tell me the assay call for COc1ccc2c3c1O[C@H]1C(=O)CC[C@H]4[C@@H](C2)N(C)CC[C@]314 please. label 0

GET /call?item= CCCC(C)C1(CC)C(=O)NC(=O)NC1=O (stereo not drawn) returns the recorded outcome of this test. label 0

Which outcome did this test record for the compound O=Cc1ccco1 ? label 0

Could you please tell me the result logged for [O]=[Cr](=[O])([OH])[O][Cr](=[O])(=[O])[OH] in this assay? label 0

Name the outcome recorded for O=C(OCCN1CCCCC1)C(O)(c1ccccc1)c1ccccc1 in the assay. label 0

So what was the verdict on O=C1CC[C@@]2(O)C3Cc4ccc(O)c5c4C2(CCN3CC2CC2)[C@H]1O5 (stereo partly drawn) in this test? label 0

Call for entry Clc1ccccc1Cl : label 0

Recorded call for CCNC(C)Cc1cccc(C(F)(F)F)c1 (stereo not drawn) ? label 0

Fill in: this test's call for CCCN1CCCC2Cc3[nH]ncc3CC21 (stereo not drawn) is ___ label 0

How did this test come out for CC(C)(C)c1cc(O)ccc1O ? label 1

###

- tested on: Cytochrome P450 2C9 (Homo sapiens)
- run description: Cytochrome P450 family 2 subfamily C member 9 (CYP2C9) small molecule antagonists: luciferase biochemical (cell-free) qHTS assay (AID 1645842); also: nearly all actives have a fitted effect of over 55% in size
- cond: P450-Glo CYP2C9 enzyme assay, luciferin luminescence; series mostly up to 57.4 µM
Records with an inconclusive call do not appear. Calls of active or inactive are those of the source. The call rests on the fitted dose curve; in most records, active means well fitted inhibition curve with a large enough effect in the repeat runs; inconclusive means weak or mixed curves; inactive means no such curve, though single readings can be large or run the other way.
Form entry, call: pick from active, inactive

Any idea what this test logged for CCc1c(C(=O)C(N)=O)c2c(OCC(=O)OC)cccc2n1Cc1ccccc1 ? active

For CCNCC(O)c1cccc(O)c1 (stereo not given) , which call appears in the assay record? inactive

GET /call?item= CN1CCC[C@@H]1Cc1c[nH]c2ccc(Nc3ncccc3[N+](=O)[O-])cc12 returns the recorded outcome of this test. active

Just curious, what result did CCCCNCC(O)c1ccc(O)cc1 (stereo not given) get here? inactive

Write down the call the test reported for this compound. Item: Cn1ncnc1COc1nn2c(-c3c(F)cccc3F)nnc2cc1C1CCC1 active

###

- run description: MultiTox-Fluor Cytotoxicity Assay - LYMP1-003 - Dead Cells (AID 961);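 also: cells exposed to compound for 16 h at 37 °C; nearly all actives have a fitted effect of over 70% in size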
- cond: LYMP1-003 lymphoblastoid cells, dead-cell protease fluorescence; series mostly up to 92.2 µM
The source made the active and inactive calls. Calls come from the whole dose curve; as a rule, active = well fitted cell-killing curve with a large enough effect; inconclusive = small, poorly fitted or top-dose-only effect, or effect the other way; inactive = flat fitted curve, though single readings scatter.
Pick one and only one: YES (active), NO (inactive)

What outcome does the record of this test show for CC(C)(C)c1cc(O)ccc1O ? NO

GET /call?item= C=CCN=C=S returns the recorded outcome of this test. NO

GET /call?item= C[C@H]1CC[C@@H]2[C@@H](C)[C@H]3[C@H](C[C@H]4[C@@H]5CC=C6CC(O[C@@H]7O[C@H](CO)[C@H](O)[C@H](O[C@@H]8O[C@H](CO)[C@@H](O)[C@H](O)[C@H]8O)[C@H]7O[C@H]7O[C@@H](C)[C@H](O)[C@@H](O)[C@H]7O)CC[C@]6(C)[C@H]5CC[C@]34C)N2C1 (some centres undefined) returns the recorded outcome of this test. YES

Test call, this molecule: O=C1C=CC(=O)C=C1 NO

###

- run description: Primary qHTS for inhibitors of nuclear receptor binding SET domain protein 2 (NSD2) in an isogenic RCH-ACV NSD2 p.E1099K mutant (9B) (AID 1645876); also: nearly all actives have a fitted effect of over 70% in size; also: potency is read from the fitted curve at half-maximal effect
- cond: RCH-ACV (leukaemia line) NSD2 E1099K (9B) viability, CellTiter-Glo, 72 h; series mostly up to 44.9 µM
Inconclusive results are not listed. Activity calls are given as the source filed them. The call rests on the fitted dose curve; in most records, active means well fitted inhibition curve with a large enough effect; inconclusive means small, poorly fitted or top-dose-only effect; inactive means flat fitted curve, though single readings scatter.
quantity: Potency

molecule: CO[C@H]1[C@H](O)[C@H](O[C@H]2CC[C@]3(C)C4CC[C@]5(C)[C@H](C6=CC(=O)OC6)CC[C@]5(O)C4CC[C@@H]3C2)O[C@@H](C)[C@@H]1O (stereo partly specified)
Potency: 22.4 nM (active)
--
molecule: CN(C)CCc1c[nH]c2ccc(CN3CCN(C)S3(=O)=O)cc12
Potency: inactive
--
molecule: C[C@H]1C(=O)O[C@H]2[C@H](O)[C@]34C5OC(=O)[C@]3(O[C@@H]3OC(=O)[C@H](O)C34[C@H](C(C)(C)C)[C@H]5O)C12O (stereo partly specified)
Potency: inactive
--
molecule: C[CH2][Hg][S]c1ccccc1C(=O)O
Potency: 668 nM (active)
--
molecule: N#C/C(=C/c1ccc(O)c(O)c1)C(N)=S
Potency: 8200 nM (active)

Which Potency value belongs to C=CC(C)(C)c1[nH]c2cccc3c2c1C[C@@H]1[C@@H]3[C@@H](OC(C)=O)[C@H](C)CN1C ? inactive

Name the recorded Potency for C=C1[C@@H]2CC[C@@]3(C)[C@H](c4ccoc4)OC(=O)C[C@]13O[C@H]1CC(=O)C(C)(C)[C@H](C(OC(C)=O)C(=O)OC)[C@]12C (stereo partly specified) . inactive

Consider the molecule shown here: O=C1C[C@@H]2OCC=C3CN4CC[C@]56c7ccccc7N1[C@H]5[C@H]2[C@H]3C[C@H]46 What is its recorded Potency? inactive

###

- tested on: Guanine nucleotide-binding protein G(i) subunit alpha-1 (Homo sapiens) (UniProt P63096)
- Sequence (P63096 whole entry, looked up): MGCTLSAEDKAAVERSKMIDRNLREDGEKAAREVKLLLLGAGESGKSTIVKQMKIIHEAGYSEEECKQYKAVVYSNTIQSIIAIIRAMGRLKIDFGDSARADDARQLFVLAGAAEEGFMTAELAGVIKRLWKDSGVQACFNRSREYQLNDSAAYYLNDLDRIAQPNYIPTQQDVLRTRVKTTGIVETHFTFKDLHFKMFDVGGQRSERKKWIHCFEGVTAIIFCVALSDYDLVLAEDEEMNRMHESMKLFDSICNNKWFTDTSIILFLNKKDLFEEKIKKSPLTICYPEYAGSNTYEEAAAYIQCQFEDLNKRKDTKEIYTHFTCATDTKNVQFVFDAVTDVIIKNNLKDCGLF
- run description: qHTS Assay for Inhibitors of RGS12 GoLoco Motif Activity (Green Fluorophore) (AID 879)
- cond: Galphai1/FITC-RGS12 GoLoco peptide, fluorescence polarization; series mostly up to 57.1 µM
Activity calls are given as the source filed them. Calls come from the whole dose curve; as a rule, active = well fitted curve in the direction sought with a large enough effect; inconclusive = small, poorly fitted or top-dose-only effect, or another doubt; inactive = no such curve, though single readings can be large or run the other way.
Output constraint: value belongs to t = active, f = inactive

# outcome recorded in this test, key = NCCc1c[nH]c2ccc(C(N)=O)cc12 f

For this compound, state the assay outcome: C[N+](C)(C)CC#CCN1CCCC1=O f

Test call for this compound, please: CCCN(CCC)C1Cc2cc(OC)c(OC)cc2C1 f

Please let me know the test result on file for NNC(=O)c1ccc(O)cc1 . f

Test call, this compound: OCc1cnc[nH]1 f

Hello, I am checking results. What call was entered for NCCc1ccc(S(=O)(=O)F)cc1 ? f

Dear colleague, could you share the recorded outcome for CCCn1c(C)c(C(=O)c2ccc3ccccc3c2)c2ccccc21 when you have a moment? f

Look up the recorded call for CCCn1c(=O)c2[nH]c(C3CCCC3)nc2n(CCCOC(=O)c2ccc(S(=O)(=O)F)cc2)c1=O in this test. f

Tell me the assay call for Nc1ccc(CCN2CCN(c3cccc(C(F)(F)F)c3)CC2)cc1 please. f

Per the assay record, what outcome was assigned to C[C@@H]1O[C@H](C[N+](C)(C)C)CS1 ? f

What call does the record list for COc1ccc2[nH]cc(CCN)c2c1 ? f

Per the records of this test, what outcome belongs to CNC(=O)OCC[N+](C)(C)C ? f

Please let me know the test result on file for O=C(O)c1cc[c]([Hg][Cl])cc1 . t

Identify the outcome logged in this assay for the compound shown: N#CCCN f

Outcome logged for CCCN(CCC)CCc1c[nH]c2ccc(C(N)=O)cc12 in this assay: f

Tell me the recorded outcome of this test for Cc1c2ccncc2c(C)c2c1[nH]c1ccccc12 . f

Ref: PubChem BioAssay (NCATS)
